Item-by-item account of growth inhibition
- Procedure Details: NCI Yeast Anticancer Drug Screen. Data for the mlh1 rad18 strain (AID 175)
- Test Parameters: S. cerevisiae mlh1 rad18 strain growth inhibition; at 50.0 µM; hits give high values
About 79,000 compounds went through this panel and 15% of them were active in at least one assay; those are over-represented in the sample as a whole.
Number in %, nothing else.

O=C(c1ccccc1)c1c(-c2ccccc2)sc2nc3ccccc3nc12 :: 11.2
CCC1COC(Nc2cccc3c2CCCC3)=N1 (stereo unspecified) :: 4.55
COC(=O)CCC(=O)C(CC(=O)OC)C(=O)CCC(=O)NCCc1ccccc1 (stereo unspecified) :: -31.4
COC(=O)C1C(C)(C(=O)OC)N=NC1(c1ccccc1)c1ccccc1 (stereo unspecified) :: -3.4
CN1C(=O)C(C)(O)Sc2ccccc21 (stereo unspecified) :: 0.1

Just so you know, measured growth inhibition for C[N+]1(C)CCOC(O)(c2ccccc2)C1 (stereo unspecified) came out at -18.6

Just so you know, measured growth inhibition for CC(=O)c1cc(Cl)ccc1OCC(O)CNc1ccc(Cl)cc1C(=O)c1ccccc1 (stereo unspecified) came out at 7.15

Just so you know, measured growth inhibition for NC(=O)OCC1CCCCC1OC(N)=O (stereo unspecified) came out at -10.4

----------
- Procedure Details: NCI Yeast Anticancer Drug Screen. Data for the mlh1 rad18 strain (AID 175)
- Test Parameters: S. cerevisiae mlh1 rad18 strain growth inhibition; at 50.0 µM; hits give high values
The panel holds about 79,000 compounds, 15% with a hit somewhere; the sample as a whole holds those more often. The source made the active and inactive calls. No stated cut-off is given here; in the data, active means growth inhibition above about 70%; inactive means the rest.
Item-by-item account of growth inhibition

Use the examples below as a reference point.
c1ccc2c(c1)SCCc1nncn1-2 :: 4.95% (inactive)
O=C(O)CCC(CCC(=O)O)(C(=O)O)c1ccccc1 :: -7.8% (inactive)
CCN(CC)CC[n+]1ccc2c(C)c3[nH]c4ccccc4c3c(C)c2c1 :: 15.9% (inactive)
Nc1nc2ncc(=O)[nH]c2c(=O)[nH]1 :: -8.4% (inactive)
NC(=O)C(CCN1CCCCC1)c1ccccc1 (configuration not stated) :: 24.8% (inactive)
CCOc1ccc(NC(=O)/C=C/c2ccco2)cc1 :: 3% (inactive)
C[n+]1cc(-c2ccccc2)cc(-c2ccccc2)c1 :: 6.85% (inactive)
Cc1cc(=O)c2cc([N+](=O)[O-])ccc2[nH]1 :: -2.65% (inactive)
Cc1cc(C(=O)O)c(C(=O)O)c(=O)[nH]1 :: -13.9% (inactive)
CC(=O)OCC1OC(n2cnc([N+](=O)[O-])c2C#N)C(OC(C)=O)C1OC(C)=O (configuration not stated) :: 34.3% (inactive)

Just so you know, measured growth inhibition for CP(=O)(CCSc1ccccc1)c1ccccc1 (configuration not stated) came out at -21.1% (inactive)

Just so you know, measured growth inhibition for COc1cc([N+](=O)[O-])c(C(=O)O)c(C(=O)O)c1OC came out at 1.15% (inactive)

----------
- Procedure Details: NCI Yeast Anticancer Drug Screen. Data for the mlh1 rad18 strain (AID 175)
- Test Parameters: S. cerevisiae mlh1 rad18 strain growth inhibition; at 50.0 µM; hits give high values
This is part of a sample that, as a whole, favours compounds with a hit. Of some 79,000 tested, about 15% had one in any assay.
Property Label: growth inhibition (%)
Number in %, nothing else.

Just so you know, measured growth inhibition for Cc1ccccc1N(CC1CO1)CC1CO1 (stereo unspecified) came out at -3.25

Just so you know, measured growth inhibition for O=C1C(Cc2ccc(O)cc2)NC(=S)N1c1ccccc1 (stereo unspecified) came out at -19.8

Just so you know, measured growth inhibition for Brc1cccc(CCOCc2ccccc2)c1 came out at -3.9

----------
- Procedure Details: NCI Yeast Anticancer Drug Screen. Data for the mlh1 rad18 strain (AID 175)
- Test Parameters: S. cerevisiae mlh1 rad18 strain growth inhibition; at 50.0 µM; hits give high values
About 79,000 compounds went through this panel and 15% of them were active in at least one assay; those are over-represented in the sample as a whole.
Property Label: growth inhibition (%)
Number in %, nothing else.

Just so you know, measured growth inhibition for CCOC(=O)CCC(NC(=O)c1ccc(N(C)C=O)cc1)C(=O)OCC (stereo unspecified) came out at 12.3

Just so you know, measured growth inhibition for CCCCCCCCCCCCC(O)C(=O)O (stereo unspecified) came out at -39.7

Just so you know, measured growth inhibition for Cc1cc(N=Cc2c(CO)cnc(C)c2O)c(N=Cc2c(CO)cnc(C)c2O)cc1C.[Zn] came out at 0.9

Just so you know, measured growth inhibition for CC(C(=O)O)C(NC(=O)c1ccccc1)C(=O)O (stereo unspecified) came out at 13.4

Just so you know, measured growth inhibition for CCOc1c2ccsc2c(OCC)c2ccsc12 came out at -35.8

Just so you know, measured growth inhibition for COc1ccc(C2OC3=Nc4ccccc4NC3C2=O)cc1OC (stereo unspecified) came out at 16.4

----------
Item-by-item account of growth inhibition
- Procedure Details: NCI Yeast Anticancer Drug Screen. Data for the mlh1 rad18 strain (AID 175)
- Test Parameters: S. cerevisiae mlh1 rad18 strain growth inhibition; at 50.0 µM; hits give high values
- Protocol: Growth inhibition of yeast strains with defined genetic alterations is measured as a screen for potential anti-cancer activity. Selected strains with alterations in DNA damage repair or cell cycle control were exposed to compounds and growth inhibition was measured relative to vehicle treated controls. The strain used in this assay is mlh1 rad18
About 79,000 compounds went through this panel and 15% of them were active in at least one assay; those are over-represented in the sample as a whole.
Number in %, nothing else.

Use the examples below as a reference point.
CSc1ccc(NC(=O)Nc2cc(Cl)c(Cl)cc2C)cc1 :: 25.2
Nc1nc[n+](Cc2ccccc2)c2ncn(Cc3ccccc3)c12 :: 3.5
C/C(CC(O)(C(F)(F)F)C(F)(F)F)=N\NC(N)=S :: -9.3
O=c1[nH]cc(NS(=O)(=O)O)c(=O)[nH]1 :: -0.55
CC(C)(C)OC(=O)NO :: 4.7
CCCCCC(CSCC)C(=O)/C=C/c1ccccc1 (configuration not stated) :: 5.6
CCOC(=O)/C(C#N)=C/C=C1C=CN(C)C=C1 :: -10.1
COC(=O)C(=O)CC(=O)CCn1ncc(Cl)c(Cl)c1=O :: -17.7

Just so you know, measured growth inhibition for O=C1c2cc(Cl)ccc2-c2ccc(N=Cc3ccccc3Cl)cc21 came out at -1.35

----------
- Procedure Details: NCI Yeast Anticancer Drug Screen. Data for the cln2 rad14 strain (AID 165);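 also: 0% = growth equal to vehicle treated cultures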
- Test Parameters: S. cerevisiae cln2 rad14 strain, at 50.0 µM, hits give high values
- Description: Growth inhibition of yeast strains with defined genetic alterations is measured as a screen for potential anti-cancer activity. Selected strains with alterations in DNA damage repair or cell cycle control were exposed to compounds and growth inhibition was measured relative to vehicle treated controls. The strain used in this assay is cln2 rad14
Compounds without any hit were thinned out: in the full panel of roughly 79,000, 15% have a hit. Calls of active or inactive are those of the source. No stated cut-off is given here; in the data, active means growth inhibition above about 70%; inactive means the rest.
Item-by-item account of growth inhibition

O=c1oc2nc(-c3ccccc3)[nH]c(=O)c2c2c1CCCC2 :: 9.3% (inactive)
N#CC1CCCC[N-]1.[NH-]CC[N-]CC[NH-].[Pt+4] (centres undefined) :: -10.1% (inactive)
Cn1cnc(N)c(N=O)c1=O :: 18.7% (inactive)
CCOC(=O)CCC[n+]1cccc(C#N)c1 :: -3.35% (inactive)

Just so you know, measured growth inhibition for Cc1ccc(S(=O)(=O)NC(CO)C(=O)O)cc1 (centres undefined) came out at -24.6% (inactive)

Just so you know, measured growth inhibition for O=c1[nH]c2cc(Cl)ccc2nc1/C=C(\O)c1cccc(O)c1 came out at -4.35% (inactive)

Just so you know, measured growth inhibition for O=[N+]([O-])c1cc(/C=N\NS(=O)(=O)c2ccc(Cl)cc2)c(O)c([N+](=O)[O-])c1 came out at -1.35% (inactive)

Just so you know, measured growth inhibition for Cc1ccc2cccnc2c1 came out at 11.2% (inactive)

Just so you know, measured growth inhibition for N#CC(C#N)=C(N)/C(C#N)=C/c1ccc2ccccc2n1 came out at 12.8% (inactive)

----------
- Procedure Details: NCI Yeast Anticancer Drug Screen. Data for the cln2 rad14 strain (AID 165);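 also: 0% = growth equal to vehicle treated cultures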
- Test Parameters: S. cerevisiae cln2 rad14 strain, at 50.0 µM, hits give high values
The panel holds about 79,000 compounds, 15% with a hit somewhere; the sample as a whole holds those more often.
Property Label: growth inhibition (%)
Number in %, nothing else.

Just so you know, measured growth inhibition for Cc1onc(-c2ccccc2)c1NC(=O)OCc1ccc(-c2cc(C(F)(F)F)cc(C(F)(F)F)c2)o1 came out at 9.7

Just so you know, measured growth inhibition for CCCCCCCCCc1cc(=O)c2ccc(OCc3ccccc3)cc2o1 came out at -11.2

Just so you know, measured growth inhibition for C/C(CC(O)(C(F)(F)F)C(F)(F)F)=N\NC(N)=S came out at 9.55

Just so you know, measured growth inhibition for Cc1ccc(C(=O)N2CCCCC2)cc1N=NN(C)C came out at 14.3

Just so you know, measured growth inhibition for CCOc1ccc(/C(O)=C/c2nc3ccccc3nc2/C=C(\O)c2ccc(OCC)cc2)cc1 came out at -0.75
